Assay: NCI Yeast Anticancer Drug Screen. Data for the cln2 rad14 strain (AID 165);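 further: 0% = growth equal to vehicle treated cultures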
Details: S. cerevisiae cln2 rad14 strain, at 50.0 µM (retest, dose inferred, filed as 5.0), stronger effect = higher value
Compounds without any hit were thinned out: in the full panel of roughly 79,000, 15% have a hit.
Note to self: values exactly at 50% are yes (1). So growth inhibition at or above 50% is yes (1), below is no (0).

Solved cases below.
{"compound": "CCCCOC(=O)Nc1ccc(C)c(NC(=O)OCCCC)c1", "category.label": "yes (1)"}
{"compound": "CCN(CC)CCN(C)CCc1ccc(Br)cc1", "category.label": "yes (1)"}
{"compound": "CCC1(OC(=O)CN2CCN(CCO)CC2)C(=O)OCc2c1cc1n(c2=O)Cc2cc3ccccc3nc2-1 (stereo unspecified)", "category.label": "no (0)"}
{"compound": "O=C1C=C(Cl)C(=O)C(c2ccc(Cl)cc2)=C1", "category.label": "yes (1)"}

Request: Quick check, growth inhibition >= 50%? O=Cc1ccc2c(c1)C(=O)c1ccccc1C2=O
Result: no (0)

Request: Check the entry CCCCC/C(=C(\C#N)C(=O)OCC)c1ccccc1 : does growth inhibition equal or exceed 50%?
Result: no (0)

Request: Does the reported growth inhibition for COc1ccc(C(NCCNC(c2ccc(OC)c(OC)c2)c2cc3c(cc2O)OCO3)c2cc3c(cc2O)OCO3)cc1OC (stereo unspecified) fall at or above the 50% mark?
Result: no (0)

---

Test: NCI Yeast Anticancer Drug Screen. Data for the rad50 strain (AID 155);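 further: 0% = growth of vehicle-only cultures of the same strain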
Conditions: S. cerevisiae rad50 strain growth inhibition; at 3.7 µM; stronger effect = higher value
About 79,000 compounds went through this panel and 15% of them were active in at least one assay; those are over-represented in the sample as a whole.
measurement.type: growth inhibition (%)
Quick note: give the figure in %, leave out the unit.

{"compound": "CN1CCN(C(=O)/C=C/C(=O)c2ccccc2)CC1", "measurement.type": "growth inhibition", "reported": -8}
{"compound": "Cc1ccc(N=Nc2ccc(O)c(=O)cc2)cc1", "measurement.type": "growth inhibition", "reported": 5}
{"compound": "O=C(c1ccc([N+](=O)[O-])cc1)C1N=NCC1c1ccccc1 (configuration not stated)", "measurement.type": "growth inhibition", "reported": 4}

Request: For the compound shown here, N/C(=N/N=C/c1cc(Br)cc(Br)c1O)NO , give the reported growth inhibition.
Result: -34

Request: Query (compound): CN1C(=O)c2ccc3ccccc3c2C1=O ; field requested: growth inhibition
Result: 32

Request: What value of measured growth inhibition is listed for COc1cccc2c1C(=O)c1c(O)c3c(c(O)c1C2=O)C[C@@](O)(C(C)=O)C[C@@H]3OC1CC(OC(C)=O)C(OC(C)=O)C(C)O1 (some centres not stated) ?
Result: -11

Request: Suppose we examine the compound CC(/C=C/c1ccccc1)=N\NC(N)=S ; what growth inhibition value has been reported?
Result: 10

Request: Recorded growth inhibition for O=C1OC(OC/C(Br)=C(\Br)COC2OC(=O)C(Cl)=C2Cl)C(Cl)=C1Cl (configuration not stated) , please?
Result: 1

Request: Can you share its growth inhibition? I mean this compound: O=C(NNc1ccccc1)C(O)C(O)C(O)C(O)C(O)CO (configuration not stated)
Result: 7

Request: # input compound: CCOC(=O)c1cc([N+](=O)[O-])c(Sc2ncnc3nc[nH]c23)c([N+](=O)[O-])c1 ; wanted: its growth inhibition
Result: -18

Request: // lookup growth inhibition for CC1=C(SCc2ccccc2)C(=O)c2ccccc2C1=O
Result: -22

Request: Entry under review: COC(=O)CC1(O)C(/C=C/c2ccccc2)C(C(=O)OC)C(=O)C(C(=O)OC)C1C(=O)OC (configuration not stated) . Reported growth inhibition?
Result: -1

Request: Please report the recorded growth inhibition for CCN(CC)Cc1cc(Nc2c3ccccc3nc3c2[nH]c2ccccc23)cc(CN(CC)CC)c1O .
Result: 7

Request: Any idea what its growth inhibition is? The compound is Cc1cc(=O)oc2c(C)c3occc(=O)c3cc12
Result: 2

Request: Can you look up the measured growth inhibition of COc1cc(C2c3cc4c(cc3OC(OC(C)=O)C2C)OCO4)cc(OC)c1OC (configuration not stated) for me?
Result: -1

Request: # lookup: growth inhibition of O=c1ccc(=O)n(-c2ccccc2)[nH]1
Result: -3

Request: growth inhibition lookup needed for CCCCNC1CCC2(SCCS2)c2[nH]c3ccccc3c21 (configuration not stated) , thanks.
Result: 3
